- measurementTarget: rat NaP2b (SLC34A2) (Rattus norvegicus)
- Construct: host or cells: HEK293
- Sequence (Q9JJ09 whole entry): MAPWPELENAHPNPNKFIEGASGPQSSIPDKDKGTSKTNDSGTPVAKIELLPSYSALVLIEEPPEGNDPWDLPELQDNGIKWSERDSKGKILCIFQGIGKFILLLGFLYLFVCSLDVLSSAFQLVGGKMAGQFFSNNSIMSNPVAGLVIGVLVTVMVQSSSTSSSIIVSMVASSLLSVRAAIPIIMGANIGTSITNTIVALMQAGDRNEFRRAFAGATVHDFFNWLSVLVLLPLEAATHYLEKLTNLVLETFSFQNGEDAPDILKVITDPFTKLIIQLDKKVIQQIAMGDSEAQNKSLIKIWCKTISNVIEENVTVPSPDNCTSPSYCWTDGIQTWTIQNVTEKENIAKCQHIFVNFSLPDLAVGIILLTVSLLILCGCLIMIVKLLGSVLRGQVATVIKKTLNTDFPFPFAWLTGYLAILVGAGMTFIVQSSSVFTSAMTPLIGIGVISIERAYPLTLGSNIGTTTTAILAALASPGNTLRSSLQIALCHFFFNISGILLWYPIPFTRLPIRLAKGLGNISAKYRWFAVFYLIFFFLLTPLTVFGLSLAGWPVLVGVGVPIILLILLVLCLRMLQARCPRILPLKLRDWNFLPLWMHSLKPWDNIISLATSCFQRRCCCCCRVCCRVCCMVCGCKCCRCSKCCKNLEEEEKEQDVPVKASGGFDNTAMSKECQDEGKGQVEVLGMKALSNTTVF
- assayText: Inhibition of NaP2b-mediated Pi (33P) uptake in transfected HEK293 cells, rat NaP2b
- Type: cell-based
- conditionDescription: 33P Pi uptake, 0.1 mM phosphate, value given as pIC50 range
Counter-ions that a name gives are not always drawn.
As shown below, each of these compounds has a reported IC50 value.

Known results for compounds:
>  <compound>
COC[C@H]1CCCN1c1ccc(NC(=O)c2cccc(C(=O)N(C)CCN3CCOCC3)c2)c(-c2cc(C(=O)NCc3cccc(C(F)(F)F)c3)ccn2)c1 [Example 103]

>  <IC50>
10 to 31.6 µM

$$$$
>  <compound>
CN(Cc1cccc(C(F)(F)F)c1)C(=O)c1ccnc(-c2cc(N3CCCCC3)ccc2NC(=O)c2cccc(CSCCC(=O)O)c2)c1 [Example 1.37]

>  <IC50>
1 to 7.94 µM

$$$$
>  <compound>
CC(C)C(=O)NC(CSCc1cccc(C(=O)Nc2ccc(N3CCCCC3)cc2-c2cc(C(=O)NCc3cccc(C(F)(F)F)c3)ccn2)c1)C(=O)O (centres unmarked) [Example 8.12]

>  <IC50>
10 to 31.6 µM

$$$$
>  <compound>
O=C(O)CCNC(=O)Cc1cccc(SCc2cccc(C(=O)Nc3ccc(N4CCCCC4)cc3-c3cc(C(=O)NCc4cccc(C(F)(F)F)c4)ccn3)c2)c1 [Example 140]

>  <IC50>
1 to 7.94 µM

$$$$
>  <compound>
CCN(CC)c1ccc(NC(=O)c2cccc(CCCOCCOCCOCCOCCOCCC(=O)O)c2)c(-c2cc(C(=O)NCc3cccc(C(F)(F)F)c3)ccn2)c1 [Example 300]

>  <IC50>
1 to 7.94 µM

$$$$

The reported value for CCN(CC)c1ccc(NC(=O)c2cccc(CSCCOCCOCCOCCOCCC(=O)NCCOCCOCCOCCOCCOCCOCCOCCOC)c2)c(-c2cc(C(=O)NCc3cccc(C(F)(F)F)c3)ccn2)c1 [Example 165] in terms of IC50 is 1 to 7.94 µM

The reported value for O=C(O)CCSCc1cccc(C(=O)Nc2ccc(N3CCCCC3)cc2-c2cc(C(=O)NC3CCc4ccccc43)ccn2)c1 (centres unmarked) [Example 1.34] in terms of IC50 is 1 to 7.94 µM

The reported value for COCCOCCOCCOCCOCCOCCOCCN(C)C(=O)[C@@H]1CCCN1CCN(C)C(=O)c1cccc(C(=O)Nc2ccc(N3CCCCC3)cc2-c2cc(C(=O)N[C@H]3CCCc4ccccc43)ccn2)c1 [Example 198] in terms of IC50 is 10 to 31.6 µM

The reported value for O=C(NCCOCCO)c1cccc(C(=O)Nc2ccc(N3CCCCC3)cc2-c2cc(NCc3cccc(C(F)(F)F)c3)ncn2)c1 [Example 64] in terms of IC50 is 10 to 31.6 µM

The reported value for CCN(CC)c1ccc(NC(=O)c2cccc(C(=O)N(C)CCN(CCOC)CCOCCOCCOCCOCCOCCOCCOC)c2)c(-c2cc(C(=O)NCc3cccc(C(F)(F)F)c3)ccn2)c1 [Example 335, trifluoroacetate] in terms of IC50 is 1 to 7.94 µM

The reported value for CCCN(CC)c1ccc(NC(=O)c2cccc(C(=O)N(C)CCN3CCOCC3)c2)c(-c2cc(C(=O)NCc3cccc(C(F)(F)F)c3)ccn2)c1 [Example 128] in terms of IC50 is 1 to 7.94 µM
